Reported MIC90 values for a set of compounds
- System: Streptococcus pneumoniae
- Method: Antibacterial activity against Streptococcus pneumoniae serotype 15A by broth microdilution method
- Assay type: functional
Readout Kind: MIC90 (µg/mL)

{"columns": ["Compound", "Measured On", "Readout Kind", "Censoring Qualifier", "Observed Value"],
 "data": [
  ["CC[C@H]1OC(=O)[C@H](C)[C@@H](O[C@H]2C[C@@](C)(OC)[C@@H](O)[C@H](C)O2)[C@H](C)[C@@H](O[C@@H]2O[C@H](C)C[C@H](N(C)C)[C@H]2O)[C@](C)(O)C[C@@H](C)CN(C)[C@H](C)[C@@H](O)[C@]1(C)O", "Streptococcus pneumoniae", "MIC90", ">", 16],
  ["C=CC1=C(C(=O)O)N2C(=O)[C@@H](NC(=O)/C(=N\\O)c3csc(N)n3)[C@H]2SC1", "Streptococcus pneumoniae", "MIC90", "=", 1],
  ["CC[C@H]1OC(=O)[C@H](C)C(=O)[C@H](C)[C@@H](O[C@@H]2O[C@H](C)C[C@H](N(C)C)[C@H]2O)[C@](C)(OC)C[C@@H](C)C(=O)[C@H](C)[C@H]2N(CCCCn3cnc(-c4cccnc4)c3)C(=O)O[C@]12C", "Streptococcus pneumoniae", "MIC90", "≤", 0.12],
  ["C[C@H]1COc2c(N3CCN(C)CC3)c(F)cc3c(=O)c(C(=O)O)cn1c23.C[C@H]1COc2c(N3CCN(C)CC3)c(F)cc3c(=O)c(C(=O)O)cn1c23.O", "Streptococcus pneumoniae", "MIC90", "=", 1],
  ["CC1(C)S[C@@H]2[C@H](NC(=O)Cc3ccccc3)C(=O)N2[C@H]1C(=O)O", "Streptococcus pneumoniae", "MIC90", "=", 0.5],
  ["C[C@@H](O)[C@H]1C(=O)N2C(C(=O)O)=C([C@H]3CCCO3)S[C@H]12", "Streptococcus pneumoniae", "MIC90", "=", 0.12],
  ["CO/N=C(\\C(=O)N[C@@H]1C(=O)N2C(C(=O)OC(C)OC(C)=O)=C(COC(N)=O)CS[C@H]12)c1ccco1 (some centres not stated)", "Streptococcus pneumoniae", "MIC90", "=", 4]
]}

The reported measurements were obtained from ChEMBL document CHEMBL1275437.
